measured.on: IKZF1 (Homo sapiens, UniProt Q13422+Q96SW2)
Construct: expressed in transfected cells
Sequence (Q13422 whole entry): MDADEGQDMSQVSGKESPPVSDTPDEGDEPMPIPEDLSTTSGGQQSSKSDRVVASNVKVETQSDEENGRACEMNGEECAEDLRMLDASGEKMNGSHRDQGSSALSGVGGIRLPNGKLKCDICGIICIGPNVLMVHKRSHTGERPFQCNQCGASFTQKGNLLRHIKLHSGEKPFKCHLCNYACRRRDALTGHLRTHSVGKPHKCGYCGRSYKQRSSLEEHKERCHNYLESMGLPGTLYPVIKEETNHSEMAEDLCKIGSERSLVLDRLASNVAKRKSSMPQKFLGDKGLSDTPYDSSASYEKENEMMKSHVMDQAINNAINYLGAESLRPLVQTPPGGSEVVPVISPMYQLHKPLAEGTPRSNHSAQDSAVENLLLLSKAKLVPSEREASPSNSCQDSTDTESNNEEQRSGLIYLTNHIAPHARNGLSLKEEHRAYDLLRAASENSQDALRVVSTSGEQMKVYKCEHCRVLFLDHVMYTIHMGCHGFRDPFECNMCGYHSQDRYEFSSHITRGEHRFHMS
Sequence (Q96SW2 whole entry): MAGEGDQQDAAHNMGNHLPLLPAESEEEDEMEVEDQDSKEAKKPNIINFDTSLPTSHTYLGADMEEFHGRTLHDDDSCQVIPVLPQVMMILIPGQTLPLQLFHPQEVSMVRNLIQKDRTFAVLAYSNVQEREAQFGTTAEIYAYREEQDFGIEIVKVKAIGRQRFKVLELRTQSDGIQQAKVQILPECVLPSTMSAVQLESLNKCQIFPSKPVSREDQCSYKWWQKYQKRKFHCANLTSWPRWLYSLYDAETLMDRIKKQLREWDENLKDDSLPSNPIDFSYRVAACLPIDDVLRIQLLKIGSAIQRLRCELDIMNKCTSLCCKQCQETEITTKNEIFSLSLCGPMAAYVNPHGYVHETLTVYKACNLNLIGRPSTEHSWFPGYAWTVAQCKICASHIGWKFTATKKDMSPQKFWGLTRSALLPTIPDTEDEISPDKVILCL
Sequence (Q16531 whole entry partner): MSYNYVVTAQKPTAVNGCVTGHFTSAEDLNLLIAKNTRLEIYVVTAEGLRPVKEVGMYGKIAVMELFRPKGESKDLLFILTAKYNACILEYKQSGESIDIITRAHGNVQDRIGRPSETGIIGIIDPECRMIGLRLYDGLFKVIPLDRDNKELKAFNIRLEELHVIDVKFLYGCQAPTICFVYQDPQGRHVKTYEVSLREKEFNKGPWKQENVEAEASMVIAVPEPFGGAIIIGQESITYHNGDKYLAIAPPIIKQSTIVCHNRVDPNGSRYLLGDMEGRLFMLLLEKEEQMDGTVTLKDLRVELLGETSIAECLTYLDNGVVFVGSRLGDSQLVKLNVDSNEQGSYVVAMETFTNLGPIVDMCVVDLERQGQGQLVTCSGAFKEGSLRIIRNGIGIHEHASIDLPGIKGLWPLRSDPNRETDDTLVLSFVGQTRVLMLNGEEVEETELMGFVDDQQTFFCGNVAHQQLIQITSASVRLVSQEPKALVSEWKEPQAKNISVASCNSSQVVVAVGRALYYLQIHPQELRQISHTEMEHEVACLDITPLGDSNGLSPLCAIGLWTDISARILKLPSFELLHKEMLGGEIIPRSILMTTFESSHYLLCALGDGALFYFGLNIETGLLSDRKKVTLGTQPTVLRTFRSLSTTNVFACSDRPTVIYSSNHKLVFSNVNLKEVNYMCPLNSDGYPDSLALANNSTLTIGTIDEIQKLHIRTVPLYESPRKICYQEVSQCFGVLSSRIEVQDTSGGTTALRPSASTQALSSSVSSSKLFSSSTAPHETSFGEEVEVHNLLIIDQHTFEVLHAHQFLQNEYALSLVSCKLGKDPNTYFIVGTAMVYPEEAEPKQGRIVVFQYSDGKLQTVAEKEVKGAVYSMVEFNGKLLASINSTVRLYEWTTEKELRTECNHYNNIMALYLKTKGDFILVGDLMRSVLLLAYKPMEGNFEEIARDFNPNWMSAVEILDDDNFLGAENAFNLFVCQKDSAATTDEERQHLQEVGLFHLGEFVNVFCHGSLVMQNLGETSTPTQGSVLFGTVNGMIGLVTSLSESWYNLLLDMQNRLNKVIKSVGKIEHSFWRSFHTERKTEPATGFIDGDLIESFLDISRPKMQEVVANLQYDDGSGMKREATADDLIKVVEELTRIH
test.details: HiBiT protein tagging assay, in vitro IKZF1 degradation (HEK293)
Format: cell-based
test.parameters: HEK293, 18-24 hr incubation, normalized to DMSO control, read-out: IKZF1 Dmax (maximum degradation at the highest concentration tested)
value.kind: Dmax (%)

> print(dat)
                                   compound  quantitative.readout
1  O=C1CCC(N2Cc3cc(CN[C@H]4CC[C@@](O)(c5ccccc5)CC4)ccc3C2=O)C(=O)N1 (some centres unmarked)                    77
2  O=C1CCC(N2Cc3cc(CNC4CC5CCC(C5)C4)ccc3C2=O)C(=O)N1 (centres unmarked)                    75
3  O=C1CCC(N2Cc3cc(CN[C@@H]4CCC[C@H](COCc5ccccc5)C4)ccc3C2=O)C(=O)N1 (some centres unmarked)                    93
4  C[C@H](CO)NCc1ccc2c(c1)CN(C1CCC(=O)NC1=O)C2=O (some centres unmarked)                    36
5  O=C1CCC(N2Cc3cc(CNC4CCC5(CCC5)CC4)ccc3C2=O)C(=O)N1 (centres unmarked)                    62
6  O=C1CCC(N2Cc3cc(CN[C@H]4CCC[C@@H](Cc5ccccc5)C4)ccc3C2=O)C(=O)N1 (relative stereo) [Example 12]                    95
7  O=C1CCC(N2Cc3cc(CN[C@H]4CCC[C@H](Cc5ccccc5)C4)ccc3C2=O)C(=O)N1 (relative stereo)                    67
8  O=C1CCC(N2Cc3cc(CN[C@@H]4CCCN(Cc5ccccn5)C4)ccc3C2=O)C(=O)N1 (some centres unmarked)                    97
